B1: NF2 (merlin) isoform 7, human, full length (507 aa, lacks exons 2-3 = isoform-1 residues 39-121; exon-16 C-terminus), P35240-4 (parent)
chain: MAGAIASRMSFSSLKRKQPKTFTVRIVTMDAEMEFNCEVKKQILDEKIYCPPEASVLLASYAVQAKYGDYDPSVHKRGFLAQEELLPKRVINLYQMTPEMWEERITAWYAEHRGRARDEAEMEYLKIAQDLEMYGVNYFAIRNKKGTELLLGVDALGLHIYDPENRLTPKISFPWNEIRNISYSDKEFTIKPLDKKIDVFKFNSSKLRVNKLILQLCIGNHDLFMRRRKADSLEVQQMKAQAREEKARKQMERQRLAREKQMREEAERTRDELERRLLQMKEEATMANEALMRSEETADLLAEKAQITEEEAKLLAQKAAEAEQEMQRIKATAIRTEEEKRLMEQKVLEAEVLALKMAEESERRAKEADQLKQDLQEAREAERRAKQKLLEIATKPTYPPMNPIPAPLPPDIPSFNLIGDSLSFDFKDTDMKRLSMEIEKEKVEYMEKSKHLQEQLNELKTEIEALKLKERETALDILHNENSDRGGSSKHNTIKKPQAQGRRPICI

- Variants of: B1
- test-name: reverse yeast two-hybrid deep mutational scan (rY2H-seq): NF2 isoform 7 mutant library as bait mated with wild-type prey strains; selection on medium lacking adenine for non-interacting pairs; NextSeq paired-end sequencing; enrichment vs …
- assay-context: with KDM1A (lysine-specific histone demethylase 1A; the table's label AOF2 is a gene synonym of KDM1A), O60341; yeast diploids after mating (RBait_S3 x RPrey_S3), 30 °C, selection for reporter genes on NB agar; human ABL2 co-expressed as the kinase-dead K35M mutant …; HIGHER = WEAKER BINDING (the opposite of display enrichments): higher = stronger loss of interaction: reverse Y2H selects yeast in which bait and prey do NOT interact (growth without adenine), so a …; hits-only table; scale: rY2H score; numbering: uniprot, sequence starts at 1
Label rule, in plain words: enrichment of 3 and up is Y, under 3 is N.

Below are worked cases with known answers.
variant-id: I171K
group-label: Y
--
variant-id: R383A
group-label: N
--
variant-id: S414L
group-label: Y

Query: Determine whether this variant has enrichment no lower than 3: T168D
Result: N

Query: Has D271L a recorded enrichment greater than or equal to 3?
Result: Y

Query: I'd appreciate it if you could say whether Q82A has enrichment at least equal to 3.
Result: Y

Query: Check this variant for enrichment at or above 3: A319K
Result: Y

Query: Check the entry E187K : does enrichment equal or exceed 3?
Result: N

Query: Record M262I ; criterion: enrichment no lower than 3. Met?
Result: N

Query: // inclusive: enrichment at least 3? input: A358L
Result: Y

Query: Does the variant A59L have recorded enrichment that is 3 or more?
Result: Y

Query: Decide: is the reported value of enrichment for A354L equal to or greater than 3?
Result: Y

Query: Determine whether this variant has enrichment no lower than 3: K340L
Result: Y

Query: API: above_or_equal(metric=enrichment, cutoff=3) for item I418L
Result: Y

Query: Entry L417E : is its enrichment no less than 3?
Result: N

Query: Reported enrichment at or above 3? Y61L
Result: Y

Query: Please indicate if the recorded enrichment for W175C meets or exceeds 3.
Result: N

Query: Say whether L58P shows enrichment of 3 or more.
Result: Y

Query: Would you say D428K shows enrichment at minimum 3?
Result: N

Query: Does enrichment meet or surpass 3 for M401A ?
Result: Y

Query: Test whether the variant M343E records enrichment of 3 or higher.
Result: Y
